The reported numbers originate from PubChem BioAssay AID248.

Tested on: L1210 leukemia ip in BDF1 mice, survival T/C
assay-details: NCI In Vivo Anticancer Drug Screen. Data for tumor model L1210 Leukemia (intraperitoneal) in B6D2F1 (BDF1) mice
experimental-conditions: endpoint: mean survival time; dose: 100.0 mg/kg/injection; schedule: Q04DX002 (ip); vehicle: other; higher = longer survival
Protocol: The antitumor activity of compounds was measured in mice bearing transplantable tumors. Survival or tumor size were measured and the results are expressed as the measurement made in the treated group (T) divided by the measurement made in the vehicle treated control group (C). The tumor model used in this assay is L1210 Leukemia (intraperitoneal) in B6D2F1 (BDF1) mice
Toxic doses and inconclusive results are not listed.
readout-type: T/C

Sample records with T/C:
Memo: `CN(C)OC(=O)Nc1cccc([N+](=O)[O-])c1` , reported T/C: 87 % of control

Memo: `COc1cc(OC)c(/C=C2\N=C(c3ccccc3)OC2=O)c(OC)c1` , reported T/C: 91 % of control

Memo: `C=CCc1cc(OC)cc(C(=O)c2cccc(OC)c2C#N)c1OC` , reported T/C: 104 % of control

# next compound below
Memo: `c1ccc(-c2cc[c]([Sn]([c]3ccccc3)([c]3ccccc3)[c]3ccccc3)cc2)cc1` , reported T/C: 103 % of control

---

Tested on: L1210 leukemia ip in BDF1 mice, survival T/C
assay-details: NCI In Vivo Anticancer Drug Screen. Data for tumor model L1210 Leukemia (intraperitoneal) in B6D2F1 (BDF1) mice
experimental-conditions: endpoint: mean survival time; dose: 100.0 mg/kg/injection; schedule: Q01DX001 (ip); vehicle: saline with Tween-80; higher = longer survival
Toxic doses and inconclusive results are not listed.
Each record here notes measured T/C.

Memo: O=C(O)CC1CCCCC1NC(=O)c1ccccc1 (stereo not given) , reported T/C: 100 % of control

Memo: `O=S(=O)(Nc1cc(N2CCOCC2)c(O)c2ccccc12)c1ccccc1` , reported T/C: 94 % of control

Memo: CCOC(=O)C(c1ccsc1)C(C(=O)OCC)c1cccs1 (stereo not given) , reported T/C: 92 % of control

New cases:
Memo: `Nc1cc(SC(c2ccccc2)c2ccccc2)c([N+](=O)[O-])c(N)n1` , reported T/C: 92 % of control

Memo: `N=C(N)c1ccc(OCCCCOc2ccc(NC(=O)c3cccc(S(=O)(=O)F)c3)cc2)cc1` , reported T/C: 95 % of control

Memo: `O=C1O/C(=C\c2ccccc2)C(O)=C1c1ccccc1` , reported T/C: 100 % of control

Memo: `O=C(NC(=S)Nc1cccc2c(O)cccc12)c1ccc(Cl)cc1Cl` , reported T/C: 105 % of control

Memo: C=C1CC2(C)C(=O)CCCC2OC1=O (stereo not given) , reported T/C: 102 % of control

Memo: `CC(=O)Oc1c2ccsc2cc2ccsc12` , reported T/C: 100 % of control

Memo: OC1c2ccccc2CC1N1CCCCC1 (stereo not given) , reported T/C: 97 % of control

---

Tested on: L1210 leukemia ip in BDF1 mice, survival T/C
assay-details: NCI In Vivo Anticancer Drug Screen. Data for tumor model L1210 Leukemia (intraperitoneal) in B6D2F1 (BDF1) mice
experimental-conditions: endpoint: mean survival time; dose: 25.0 mg/kg/injection; schedule: Q01DX009 (ip); vehicle: saline with Tween-80; higher = longer survival
Method: The antitumor activity of compounds was measured in mice bearing transplantable tumors. Survival or tumor size were measured and the results are expressed as the measurement made in the treated group (T) divided by the measurement made in the vehicle treated control group (C). The tumor model used in this assay is L1210 Leukemia (intraperitoneal) in B6D2F1 (BDF1) mice
Inconclusive results and toxic doses are left out.
readout-type: T/C

Sample records with T/C:
Memo: O=C1C2CC=CCC2C(=O)N1SC(Cl)(Cl)Cl (stereo unspecified) , reported T/C: 98 % of control

Memo: `CC(C)(C)c1ccc(SC(=O)Nc2cc([N+](=O)[O-])ccc2Cl)cc1` , reported T/C: 90 % of control

Memo: `COC(=O)CC(=O)C=P(c1ccccc1)(c1ccccc1)c1ccccc1` , reported T/C: 101 % of control

Memo: CCOC(=O)NCC(CCN(C)CC)(c1cccc2ccccc12)C(C)C (stereo unspecified) , reported T/C: 98 % of control

Memo: `N#CCn1c(C(F)(F)F)nc2nc(Cl)c(Cl)nc21` , reported T/C: 98 % of control

New cases:
Memo: `CCNCCCCNCC` , reported T/C: 95 % of control
